Entries annotated with measured melting point

Please review the following examples before continuing.
| compound-structure | melting point |
| --- | --- |
| O=C(Cc1ccc(O)cc1)NC1CCNCC1 | 211 to 213 °C |
| Cc1nn(C)c(C(F)(F)Cl)c1C(=O)O | 122 to 124 °C |
| CN(CC(=O)O)C(=O)C1CC1 | 112 to 114 °C |

Prompt line: Quick check: melting point of Cc1c(C(=O)O)oc2c(Cl)cc(Br)cc12 ?
Response line: 272 to 274 °C

###

parameter: melting point

| compound | parameter | observed |
| --- | --- | --- |
| Cc1cc(S(=O)(=O)N(C)C)cc(N)c1C | melting point | 178 to 180 °C |
| CC(C)n1c(=O)[nH]c2cc(C(=O)O)ccc2c1=O | melting point | 332 to 334 °C |
| CC(=O)c1cc([N+](=O)[O-])ccc1N | melting point | 144 to 146 °C |
| COC(=O)c1cnc2c(c1)c(C)nn2C | melting point | 129 to 131 °C |
| BrCc1cn(-c2ccccc2)nn1 | melting point | 111 to 113 °C |

Prompt line: GET /values?readout=melting point&item= COC(=O)C(C)NC(=O)c1ccc(Cl)c([N+](=O)[O-])c1 (stereo unspecified)
Response line: 102 to 104 °C

###

The reader will find reported melting point values listed item by item below.

| compound | melting point |
| --- | --- |
| O=C(O)c1cccc(CN2CCCC2)c1 | 196 to 198 °C |
| O=C(O)CCc1n[nH]c(=O)[nH]c1=O | 203 to 205 °C |
| O=C(O)c1ccc(Cl)c(N2CCCS2(=O)=O)c1 | 212 to 214 °C |
| O=C(O)C1CC(=O)N(C2CC2)C1 (stereo not drawn) | 93 to 95 °C |

Prompt line: Could you share which melting point value was measured for O=C1OCCN1c1ccc(S(=O)(=O)Cl)cc1 ?
Response line: 168 to 170 °C

Prompt line: Do the same for CCC(=O)NN please
Response line: 24 to 26 °C

Prompt line: Follow-up item: NC(Cc1nc2ccccc2[nH]1)=NO
Response line: 138 to 140 °C

Prompt line: Now consider O=C(O)CCCCCNS(=O)(=O)c1ccc2c(c1)OCCO2 and answer again.
Response line: 86 to 90 °C

Prompt line: Now the compound N#CCCN1C(=O)c2ccccc2C1=O
Response line: 153 to 155 °C

Prompt line: Moving on to the next compound: O=C(c1ccc(F)cc1)c1ccccc1Cl
Response line: 61 to 63 °C

Prompt line: Next compound up: CC(=O)c1cnc2cc(C)nn2c1C
Response line: 144 to 146 °C

Prompt line: Now try Cc1sc(=O)n(CC(=O)O)c1-c1ccc(F)cc1 .
Response line: 139 to 141 °C

###

Reported melting point is given for each of the following compounds.

| compound-structure | melting point |
| --- | --- |
| O=C(O)c1ccc(NS(=O)(=O)C(F)(F)F)cc1 | 226 to 228 °C |
| COc1cc(C(=O)O)cc(OC)c1OCc1ccccc1 | 155 to 159 °C |
| Cc1nnc(C(Cl)(Cl)Cl)o1 | 47 to 49 °C |

Prompt line: Which melting point value is on record for O=C1CCc2c(F)ccc(Br)c21 ?
Response line: 129 to 131 °C
